Assayed System: abc isoform of human TMEM16A channel expressed in CHO cells (Homo sapiens, UniProt Q5XXA6, DEL476-501)
Construct: expressed in transfected cells; host or cells: CHO cells, doxycycline-inducible expression under Blasticidin/Zeocin selection
Sequence (Q5XXA6 with tags, fused parts or gaps isoform Q5XXA6-5 DEL539-564): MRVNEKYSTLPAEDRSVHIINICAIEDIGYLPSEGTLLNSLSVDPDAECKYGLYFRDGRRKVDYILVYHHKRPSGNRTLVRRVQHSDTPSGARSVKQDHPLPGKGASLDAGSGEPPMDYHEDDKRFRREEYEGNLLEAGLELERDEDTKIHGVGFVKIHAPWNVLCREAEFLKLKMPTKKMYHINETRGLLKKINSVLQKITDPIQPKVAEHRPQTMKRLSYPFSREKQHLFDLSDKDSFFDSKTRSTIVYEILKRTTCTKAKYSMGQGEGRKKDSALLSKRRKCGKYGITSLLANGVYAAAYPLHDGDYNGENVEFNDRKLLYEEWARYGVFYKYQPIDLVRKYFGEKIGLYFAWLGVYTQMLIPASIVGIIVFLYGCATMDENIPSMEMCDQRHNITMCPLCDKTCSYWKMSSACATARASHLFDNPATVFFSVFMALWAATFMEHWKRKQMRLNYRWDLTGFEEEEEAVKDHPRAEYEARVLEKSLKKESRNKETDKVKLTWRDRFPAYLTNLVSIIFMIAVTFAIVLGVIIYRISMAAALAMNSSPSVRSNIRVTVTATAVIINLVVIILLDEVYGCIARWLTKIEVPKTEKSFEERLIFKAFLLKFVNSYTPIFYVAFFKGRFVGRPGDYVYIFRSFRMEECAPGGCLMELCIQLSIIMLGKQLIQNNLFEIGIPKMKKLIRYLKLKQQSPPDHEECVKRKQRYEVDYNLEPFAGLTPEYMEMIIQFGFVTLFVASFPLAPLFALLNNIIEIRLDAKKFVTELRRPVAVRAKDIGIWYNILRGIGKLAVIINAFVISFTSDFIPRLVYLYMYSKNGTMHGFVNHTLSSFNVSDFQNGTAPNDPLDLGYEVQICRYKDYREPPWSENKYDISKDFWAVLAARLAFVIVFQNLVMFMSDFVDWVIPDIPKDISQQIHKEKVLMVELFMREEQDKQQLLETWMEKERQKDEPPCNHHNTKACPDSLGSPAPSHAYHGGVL
Run Description: Automated patch clamping (QPatch) assay to measure TMEM16A activity in whole-cell
Assay type: cell-based
Condition Description: CHO, maximum current at highest dose relative to reference potentiator at maximal concentration (upper limit) and vehicle (lower limit); read-out: TMEM16A QPATCH assay EC50 V3 Assay Window (% TMEM16A max activation)
Endpoint: Emax

[
  {
    "Molecule": "C[C@@H](NC(=O)c1n[nH]c(-c2cccc(-c3ncc(C(=O)N[C@H](C)C4CC4)o3)c2)n1)C1CC1 [Example 13.2]",
    "Emax": "77%"
  },
  {
    "Molecule": "C[C@H](NC(=O)c1nnc(-c2cccc(-c3ncc(C(=O)NC(C4CC4)C4CC4)o3)c2)[nH]1)C1CC1 [Example 12.5]",
    "Emax": "92%"
  },
  {
    "Molecule": "CCC(CC)NC(=O)c1cc(-c2cccc(-c3ncc(C(=O)Nc4ccon4)o3)c2)[nH]n1 [Example 1.30]",
    "Emax": "62%"
  },
  {
    "Molecule": "CCC(CC)NC(=O)c1cnc(-c2cccc(-c3cc(C(=O)N[C@H](C)C4CC4)n(CCO)n3)c2)o1 [Example 5.1]",
    "Emax": "125%"
  },
  {
    "Molecule": "O=C(NC(C1CC1)C1CC1)c1nnc(-c2cccc(-c3ncc(C(=O)NC(C4CC4)C4CC4)o3)c2)[nH]1 [Example 12.8]",
    "Emax": "119%"
  }
]

What the record says about CCC(CC)NC(=O)c1cnc(-c2cccc(-c3cc(C(=O)N[C@H](C(=O)OC)C(C)C)n[nH]3)c2)o1 [Example 3.41] : Emax is 89%

What the record says about CCC(CC)NC(=O)c1cnc(-c2cccc(-c3nc(C(=O)NC(CC)CC)n(CCO)n3)c2)o1 [Example 16.0] : Emax is 177%

What the record says about COC(=O)[C@H](CC1CCCCC1)NC(=O)c1cnc(-c2cccc(-c3cc(C(=O)NC(C4CC4)C4CC4)n[nH]3)c2)o1 [Example 1.4] : Emax is 103%

What the record says about CCOC(=O)[C@@H](NC(=O)c1nnc(-c2cccc(-c3ncc(C(=O)N[C@@H](C)C4CC4)o3)c2)[nH]1)C(C)C [Example 13.6] : Emax is 97%

What the record says about CCC(CC)NC(=O)c1cnc(-c2cccc(-c3cc(C(=O)N[C@H](CC)[C@H]4CC[C@@H](C)O4)n[nH]3)c2)o1 [Example 3.53] : Emax is 109%

What the record says about COC(=O)[C@@H](NC(=O)c1cnc(-c2cccc(-c3cc(C(=O)NC(C4CC4)C4CC4)n(CC(O)C(F)(F)F)n3)c2)o1)C(C)C (stereo partly drawn) [Example 6.1] : Emax is 220%

What the record says about C[C@@H](NC(=O)c1nnc(-c2cccc(-c3ncc(C(=O)NC(C4CC4)C4CC4)o3)c2)[nH]1)C1CC1 [Example 13.1] : Emax is 88%

What the record says about COC(=O)[C@@H](NC(=O)c1cnc(-c2cccc(-c3cc(C(=O)NC(C4CC4)C4CC4)n(CC(C)(C)O)n3)c2)o1)C(C)C [Example 9.4] : Emax is 105%

What the record says about CCOC(=O)[C@@H](NC(=O)c1cnc(-c2cccc(-c3cc(C(=O)NC(CC)CC)n(CCO)n3)c2)o1)C(C)C [Example 4.1] : Emax is 81%

What the record says about CCC(CC)NC(=O)c1cnc(-c2cccc(-c3cc(C(=O)NC(Cc4ccccc4)C(=O)OC)n[nH]3)c2)o1 (stereo not drawn) [Example 3.28] : Emax is 84%
